Molecular target: T1, EsCas13d, nuclease-dead (Eubacterium siraeum, UniProt B0MS50, R295A;H300A;R849A;H854A)
T1 sequence: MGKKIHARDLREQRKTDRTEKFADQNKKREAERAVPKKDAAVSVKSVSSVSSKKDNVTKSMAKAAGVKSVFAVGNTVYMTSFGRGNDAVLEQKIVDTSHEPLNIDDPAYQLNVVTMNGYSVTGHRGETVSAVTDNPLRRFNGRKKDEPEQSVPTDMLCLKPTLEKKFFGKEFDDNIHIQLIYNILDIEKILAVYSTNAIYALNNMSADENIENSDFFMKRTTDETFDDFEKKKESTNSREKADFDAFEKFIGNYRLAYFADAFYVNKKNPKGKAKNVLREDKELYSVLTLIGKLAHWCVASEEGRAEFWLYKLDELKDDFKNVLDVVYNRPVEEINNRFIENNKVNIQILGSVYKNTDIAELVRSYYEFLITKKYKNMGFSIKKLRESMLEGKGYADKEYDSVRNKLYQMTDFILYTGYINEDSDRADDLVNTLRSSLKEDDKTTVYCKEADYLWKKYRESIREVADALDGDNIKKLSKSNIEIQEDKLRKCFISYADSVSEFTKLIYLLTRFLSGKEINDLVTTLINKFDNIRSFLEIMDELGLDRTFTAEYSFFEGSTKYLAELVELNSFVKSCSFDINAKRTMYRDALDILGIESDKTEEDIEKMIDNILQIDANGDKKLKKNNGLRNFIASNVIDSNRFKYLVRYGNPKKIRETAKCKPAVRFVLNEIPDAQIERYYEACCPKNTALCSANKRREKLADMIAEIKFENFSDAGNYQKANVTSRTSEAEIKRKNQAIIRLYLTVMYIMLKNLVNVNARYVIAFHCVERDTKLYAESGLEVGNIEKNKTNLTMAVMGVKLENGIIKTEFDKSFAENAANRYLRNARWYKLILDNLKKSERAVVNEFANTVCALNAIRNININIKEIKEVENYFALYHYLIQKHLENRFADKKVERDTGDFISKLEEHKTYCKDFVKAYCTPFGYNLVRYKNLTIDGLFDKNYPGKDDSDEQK
Test: crRNA (strand 1, pre-loaded); Mg2+; 40 mM Tris-HCl pH 7.5, 150 mM NaCl, 6 mM MgCl2, 1 mM DTT, 0.1% Tween-20, 0.2 mg/ml BSA; 25 C; 10 min per concentration, then washed
Settings: tags: His6-TwinStrep-SUMO cleaved; N-terminal SNAP kept (SNAP-Surface 488); label: 3' end held by stalled T7 RNA polymerase
MEASURED_METRIC: Kd (nM)

BINDER	DATA_VALUE
target 2 MT 5'PFS CAG 3'PFS UCC (mixed) RNA 1: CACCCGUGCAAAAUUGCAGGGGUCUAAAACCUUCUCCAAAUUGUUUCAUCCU RNA 2: GGGAAUGGAUCCACAUCUACGAAUUCCAGAGGAUGAAACAAUUUGGAGAAGUCCAGAUCGGAAGAGCACACGU	29
target 1 U8G,G12U (mixed) RNA 1: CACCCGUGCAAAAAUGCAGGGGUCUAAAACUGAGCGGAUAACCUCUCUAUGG RNA 2: GGGAAUGGAUCCACAUCUACGAAUUCGUACCAUAGAGAGUUUAGCCGCUCACCGAGAUCGGAAGAGCACACGU	11.8
target 2 MT 5'PFS AUU 3'PFS AUU (mixed) RNA 1: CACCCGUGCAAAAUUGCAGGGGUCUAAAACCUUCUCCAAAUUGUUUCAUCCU RNA 2: GGGAAUGGAUCCACAUCUACGAAUUCAUUAGGAUGAAACAAUUUGGAGAAGAUUAGAUCGGAAGAGCACACGU	5.5
target 3 insA 3' of 22,insU 3' of 5 (mixed) RNA 1: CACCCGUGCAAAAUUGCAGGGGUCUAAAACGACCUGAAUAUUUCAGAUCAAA RNA 2: GGGAAUGGAUCCACAUCUACGAAUUCGUUUAUUGAUCUGAAAUAUUCAUGGUCUGCAGAUCGGAAGAGCACACGU	11.1
